Quick reference for normalized growth among some compounds
# experimental.protocol: chemical genetic growth profiling, strain panel (AID 1159580);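 also: tested at 20 µM; growth read once vehicle control cultures reached saturation at 30 °C; 1 = growth at the plate median or of vehicle wells; lower values mean less growth of the strain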
# stated.conditions: S. cerevisiae deletion strains, growth OD, locus YLR085C, strain ARP6, hits give low values
Screen size: about 5,500 compounds; about 2,000 (36%) were called active. Inconclusive results (about 18%) are left out. This is one part of the list.
Write the value as a bare number.

- compound: "COc1ccc(CNc2ccccc2-c2nc3ccccc3[nH]2)cc1"
  normalized growth: 0.514

Query :: Need normalized growth of `CC(=O)c1ccc(-c2ccc(Cl)c(Cl)c2)o1` , thanks.
Result :: 0.112

Query :: Need normalized growth of `Cc1c(S(=O)(=O)c2ccc(Cl)cc2)csc1C(=O)Nc1ccc(N2CCOCC2)c(Cl)c1` , thanks.
Result :: 0.947

Query :: Need normalized growth of `CC(=O)Nc1ccc(S(=O)(=O)NC2Cc3ccccc3C2)cc1` , thanks.
Result :: 1.05

Query :: Need normalized growth of O=C1CSC(c2ccc(Cl)c(Cl)c2)N1c1ccc(F)cc1 (configuration not stated) , thanks.
Result :: 0.942

Query :: Need normalized growth of `O=C(Nc1ccccc1)NC1CCCC1` , thanks.
Result :: 0.991

Query :: Need normalized growth of OC1(c2ccc(Cl)cc2)CSc2nc3cc(C(F)(F)F)ccc3n21 (configuration not stated) , thanks.
Result :: 1.11

Query :: Need normalized growth of `Cc1nn(Cc2n[nH]c(=S)o2)c(C)c1Br` , thanks.
Result :: 1.09

Query :: Need normalized growth of `NNC(=O)c1ccccc1O` , thanks.
Result :: 0.962

Query :: Need normalized growth of `Cc1ccc(OCc2nnc(SCC(=O)Nc3cccc4c3OCO4)n2-c2ccccc2)c2c1CCC2` , thanks.
Result :: 0.995

Query :: Need normalized growth of `CC(=O)Nc1ccc(C(F)(F)F)cc1Br` , thanks.
Result :: 0.933

Query :: Need normalized growth of `O=C(Nc1ccccc1)Nc1ccc(C(F)(F)F)cc1Br` , thanks.
Result :: 0.728

---

Quick reference for normalized growth among some compounds
# experimental.protocol: chemical genetic growth profiling, strain panel (AID 1159580);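 also: tested at 20 µM; growth read once vehicle control cultures reached saturation at 30 °C; 1 = growth at the plate median or of vehicle wells; lower values mean less growth of the strain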
# stated.conditions: S. cerevisiae deletion strains, growth OD, locus YLR085C, strain ARP6, hits give low values
In all, about 5,500 compounds went through this assay and about 2,000 (36%) were called active. About 18% were inconclusive and are not listed. The list shows a part of the results.
Write the value as a bare number.

Worked examples follow.
- structure.as.smiles: "COc1ccc2c(c1)CCCN2C(=O)NC(=O)c1c(F)cccc1Cl"
  assay.value: 1
- structure.as.smiles: "COC(=O)COc1ccc(C(C)=O)cc1"
  assay.value: 1.01
- structure.as.smiles: "COc1ccc(-c2ccc(C=C(C#N)C#N)s2)cc1"
  assay.value: 0.912
- structure.as.smiles: "COc1ccc(OCC(N)=O)cc1"
  assay.value: 1.05
- structure.as.smiles: "COc1ccc(CCNC(=S)NCCc2ccc(OC)c(OC)c2)cc1OC"
  assay.value: 1.02

Query :: Need normalized growth of `COc1cc(CC/C(C)=N/O)ccc1OCc1ccc(Cl)cc1Cl` , thanks.
Result :: 0.307

Query :: Need normalized growth of `Cc1ccc2cc(NC(=O)c3ccco3)ccc2n1` , thanks.
Result :: 0.286

---

# experimental.protocol: chemical genetic growth profiling, strain panel (AID 1159580);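 also: tested at 20 µM; growth read once vehicle control cultures reached saturation at 30 °C; 1 = growth at the plate median or of vehicle wells; lower values mean less growth of the strain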
# stated.conditions: S. cerevisiae deletion strains, growth OD, locus YDR335W, strain msn5, hits give low values
Screen size: about 5,500 compounds; about 2,000 (36%) were called active. Roughly 18% stayed inconclusive and do not appear here. Some of the results follow.
Quick reference for normalized growth among some compounds

- compound: "CC(CN(C)C)CN1c2ccccc2Sc2ccccc21 (centres undefined)"
  assay.value: "1.02 (inactive)"
- compound: "CC(=O)Nc1ccccc1"
  assay.value: "0.982 (inactive)"
- compound: "CCCCS(=N)(=O)CCC(N)C(=O)O (centres undefined)"
  assay.value: "0.99 (inactive)"
- compound: "COc1c2ccccc2nc2occc12"
  assay.value: "0.938 (inactive)"
- compound: "CN(C)N=Nc1nc[nH]c1C(N)=O"
  assay.value: "0.965 (inactive)"

Query :: Need normalized growth of CN(CCC(N)CC(=O)N[C@H]1C=CC(n2ccc(N)nc2=O)O[C@@H]1C(=O)O)C(=N)N (some centres undefined) , thanks.
Result :: 0.626 (active)

Query :: Need normalized growth of `CCCC(CCC)C(=O)O` , thanks.
Result :: 1.01 (inactive)

Query :: Need normalized growth of `N#C/C(=C\c1cccc(O)c1)C(=O)O` , thanks.
Result :: 0.982 (inactive)

Query :: Need normalized growth of C[C@]12C=CC(=O)C=C1CCC1C3C[C@@H](O)[C@](O)(C(=O)CO)[C@@]3(C)C[C@H](O)[C@@]12F (some centres undefined) , thanks.
Result :: 0.984 (inactive)

Query :: Need normalized growth of `O=C(Nc1ccccc1)Nc1ccccc1` , thanks.
Result :: 0.952 (inactive)

Query :: Need normalized growth of CC(CN1c2ccccc2Sc2ccccc21)N(C)C (centres undefined) , thanks.
Result :: 0.94 (inactive)
